Please go through the items and note down their AC50.
target: His6-TEV-PPARγ-(234-505) (Homo sapiens, UniProt P37231); construct: The His6-TEV-PPARγ-(234-505) protein for assay was expressed and purified; TEV cleavage site (N); made in house; assay: TR-FRET Assay to Measure Co-R Peptide Recruitment to PPARγ; format: biochemical; conditions: Co-R peptide (SMRT-ID2) recruitment; top final concentration 20 μM; read-out: TR-FRET i-Ag; AC50
Sequence (P37231 234-505): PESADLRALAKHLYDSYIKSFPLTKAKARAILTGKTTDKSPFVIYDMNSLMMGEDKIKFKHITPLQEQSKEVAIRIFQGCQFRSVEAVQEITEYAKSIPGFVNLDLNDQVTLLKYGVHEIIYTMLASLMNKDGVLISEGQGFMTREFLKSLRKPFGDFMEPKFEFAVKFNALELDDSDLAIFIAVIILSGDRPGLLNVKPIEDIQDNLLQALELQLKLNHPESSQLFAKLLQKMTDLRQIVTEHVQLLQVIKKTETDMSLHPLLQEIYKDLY
// units = nM; emit number, no label

Exercise: Reported AC50 for COc1cc(-c2cc(C(=O)N3CCC(C(=O)NCc4cccc5cc[nH]c45)CC3)n[nH]2)c(Cl)cn1 : what is it?
Key: 808

Exercise: // returns reported AC50 for input COc1cc(-c2cc(C(=O)N3CCC(C(=O)NC4CCC(O)(C(F)(F)F)CC4)CC3C(F)(F)F)n[nH]2)c(F)cn1 (single isomer, unassigned) [Example 367-B]
Key: 12.7

Exercise: Could you tell me which AC50 is on file for COc1cc(-c2cc(C(=O)N3CCC(C(=O)NCc4ccc5c(c4)ncn5C)CC3)n[nH]2)c(Cl)cn1 ?
Key: 628

Exercise: Reported AC50 for COc1cc(-c2cc(C(=O)N3CCC(C(=O)NC4CCC(OCC(C)OC)(C(F)(F)F)CC4)CC34CC4)n[nH]2)c(F)cn1 (single isomer, unassigned) [Example 340-A] : what is it?
Key: 6.5

Exercise: Entry COc1cc(-c2cc(C(=O)N3CCC(C(=O)NCc4cn5cc(Cl)ccc5n4)CC3)n[nH]2)c(Cl)cn1 : reported AC50 = ?
Key: 94.5

Exercise: Which AC50 value is on record for COc1cc(-c2cc(C(=O)N3CC[C@H](C(=O)NC4CCCn5cc(C(F)(F)F)nc54)CC34CC4)n[nH]2)c(F)cn1 (single isomer, unassigned) [Example 502-A] ?
Key: 110

Exercise: I'd like to know its AC50. The compound in question is COc1cc(-c2cc(C(=O)N3CCC(NC(=O)C4CCC(O)(C(F)(F)F)CC4)CC34CC4)n[nH]2)c(F)cn1 (single isomer, unassigned) [Example 347-A]
Key: 81.6

Exercise: Please look up its AC50: COc1cc(-c2cc(C(=O)N3CCC(C(=O)NCc4ncc(C(F)(F)F)cc4Cl)CC3)n[nH]2)c(Cl)cn1
Key: 394

Exercise: Record request: AC50 value, item CC(=O)c1cc(-c2cc(C(=O)N3CCC(C(=O)NCc4ncc(F)cc4Cl)CC34CC4)n[nH]2)c(F)cn1 (centres unmarked)
Key: 42.8

Exercise: Which value of AC50 has been reported for COc1cc(-c2cc(C(=O)N3CCC(F)(C(=O)NCc4cccc(Cl)c4)CC3)n[nH]2)c(Cl)cn1 in the records?
Key: 125

Exercise: I am curious: what AC50 value has been reported for CCO[C@]1(C(F)(F)F)CC[C@H](NC(=O)[C@@H]2CCN(C(=O)c3cc(-c4cc(C)ncn4)[nH]n3)C3(CC3)C2)CC1 (single isomer, unassigned) ?
Key: 6360

Exercise: Item COc1cc(-c2cc(C(=O)N3CC[C@H](C(=O)NCC45COC(CN)(C4)C5)CC34CC4)n[nH]2)c(F)cn1 has what recorded AC50?
Key: 294

Exercise: Recorded AC50 for COc1cc(-c2cc(C(=O)N3CC[C@H](C(=O)NCc4nnn(C)c4C(F)(F)F)CC34CC4)[nH]n2)c(F)cn1 , please?
Key: 5.6

Exercise: AC50 for COc1cc(-c2cc(C(=O)N3CCC(C(=O)NC4CS(=O)(=O)N(C)c5ccccc54)CC3)n[nH]2)c(Cl)cn1 (racemic) ?
Key: 999

Exercise: AC50 for COc1cc(-c2cc(C(=O)N3CCC(C(=O)NC4CCOc5ccccc54)CC3)n[nH]2)c(Cl)cn1 (centres unmarked) ?
Key: 215

Exercise: Recorded AC50 of COc1cc(-c2cc(C(=O)N3CCC(C(=O)NC4CCCC(F)(F)C4)CC3)n[nH]2)c(Cl)cn1 (centres unmarked) , please.
Key: 910

Exercise: // query AC50 value for entry COc1cc(-c2cc(C(=O)N3CC[C@H](C(=O)NCc4cnccc4C(F)(F)F)CC34CC4)n[nH]2)c(F)cn1
Key: 3.3

Exercise: Name the reported AC50 value associated with the compound COc1cc(-c2cc(C(=O)N3CCC(C(=O)Nc4cnn5ccc(C(C)O)nc45)CC34CC4)n[nH]2)c(F)cn1 (mixture of isomers)
Key: 1.2

Exercise: Consider the compound COc1cc(-c2cc(C(=O)N3CC[C@H](C(=O)NCc4ncc(N5CC6CC5CN6)cc4Cl)CC34CC4)n[nH]2)c(F)cn1 (single isomer, unassigned) [Example 462-A] and give its measured AC50.
Key: 22.5

Exercise: # AC50 lookup, item COc1cc(-c2cc(C(=O)N3CC[C@H](C(=O)NCC45CC(C4)N(CC(C)(C)F)C5)CC34CC4)n[nH]2)c(F)cn1
Key: 410
